Origin of measurements: patent US9605266

# assayed-system: C-C chemokine receptor type 5 (CCR5) (Homo sapiens, UniProt P51681 P51681:1-352)
# Sequence (P51681 whole entry, one chain of several): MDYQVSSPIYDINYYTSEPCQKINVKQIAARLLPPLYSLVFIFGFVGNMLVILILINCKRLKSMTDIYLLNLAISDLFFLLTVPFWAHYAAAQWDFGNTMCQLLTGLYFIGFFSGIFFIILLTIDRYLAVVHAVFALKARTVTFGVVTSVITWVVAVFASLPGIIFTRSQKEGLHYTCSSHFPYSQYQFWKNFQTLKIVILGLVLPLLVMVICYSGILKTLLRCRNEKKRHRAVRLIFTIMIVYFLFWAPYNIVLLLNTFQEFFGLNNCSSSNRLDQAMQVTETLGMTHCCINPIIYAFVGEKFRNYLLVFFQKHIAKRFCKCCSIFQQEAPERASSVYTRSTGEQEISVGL
# assay-name: cell_activity; HIV-1 R5 JR-FL p24 day 3; day 5 232.6 ± 38.3, day 7 170.4 ± 47.0; X4 strains IIIB and NL4-3 not inhibited
# particulars: tags: endogenous on primary PBMC-CD4+ cells
reported-property: IC50 (nM)
Numbers only, in nM.

Lab book: IC50 of G-3 aptamer (ssRNA, 2'-F pyrimidines (2'-F-C, 2'-F-U)) RNA: GGGAGGACGAUGCGGGCCUUCGUUUGUUUCGUCCACAGACGACUCGCCCGA noted as 220
